Data credit: patent US20140039044A1

# Test system: COLO205 cells
# test method notes: Cell cycle distribution by flow cytometry
# Type: cell-based, human
# condition notes: COLO205 cells, 100 μM, 24 h, Table 12
What Cell Cycle Distribution G0/G1 was measured for each of the following?
Answers are plain numbers.

Worked examples, 7 compounds total:
COc1ccc(-c2cc(=O)c3c(OC)c(OC)c(OC)c(OC)c3o2)cc1O [I]: 83.31
COc1cc(-c2cc(=O)c3c(O)c(OC)c(OC)c(OC)c3o2)cc(OC)c1OC [E]: 69.99
COc1cc(-c2cc(=O)c3c(OC)c(OC)c(OC)c(OC)c3o2)ccc1O [Compound G]: 73.05
COc1c(OC)c(OC)c2c(=O)cc(-c3ccc(O)c(O)c3)oc2c1OC [H]: 66.50
COc1ccc(-c2cc(=O)c3c(O)c(OC)c(OC)c(OC)c3o2)cc1OC [J]: 62.39
COc1cc(-c2cc(=O)c3c(OC)c(OC)c(OC)c(OC)c3o2)cc(OC)c1OC [F, 5,6,7,8,3′,4′,5′-heptamethoxyflavone, reference compound]: 78.64
COc1ccc(-c2oc3c(OC)c(OC)c(OC)c(OC)c3c(=O)c2OC)cc1OC [D, 3,5,6,7,8,3,4-heptamethoxyflavone, reference compound]: 75.17

The record that follows has no Cell Cycle Distribution G0/G1 shown yet.
Entry under review: COc1ccc(-c2oc3c(OC)c(OC)c(OC)c(O)c3c(=O)c2OC)cc1OC [Compound C] . Reported Cell Cycle Distribution G0/G1?
51.84
